All figures here come from patent US8871753B2.

target: Recombinant Human Anaplastic Lymphoma Kinase (Homo sapiens); construct: purchased Invitrogen, Carlsbad, Calif; assay: ALK HTRF kinase assay; format: biochemical; conditions: compound at 500 nM or 1 mM; 90 μM ATP
Sequence (Q9UM73 19-1620): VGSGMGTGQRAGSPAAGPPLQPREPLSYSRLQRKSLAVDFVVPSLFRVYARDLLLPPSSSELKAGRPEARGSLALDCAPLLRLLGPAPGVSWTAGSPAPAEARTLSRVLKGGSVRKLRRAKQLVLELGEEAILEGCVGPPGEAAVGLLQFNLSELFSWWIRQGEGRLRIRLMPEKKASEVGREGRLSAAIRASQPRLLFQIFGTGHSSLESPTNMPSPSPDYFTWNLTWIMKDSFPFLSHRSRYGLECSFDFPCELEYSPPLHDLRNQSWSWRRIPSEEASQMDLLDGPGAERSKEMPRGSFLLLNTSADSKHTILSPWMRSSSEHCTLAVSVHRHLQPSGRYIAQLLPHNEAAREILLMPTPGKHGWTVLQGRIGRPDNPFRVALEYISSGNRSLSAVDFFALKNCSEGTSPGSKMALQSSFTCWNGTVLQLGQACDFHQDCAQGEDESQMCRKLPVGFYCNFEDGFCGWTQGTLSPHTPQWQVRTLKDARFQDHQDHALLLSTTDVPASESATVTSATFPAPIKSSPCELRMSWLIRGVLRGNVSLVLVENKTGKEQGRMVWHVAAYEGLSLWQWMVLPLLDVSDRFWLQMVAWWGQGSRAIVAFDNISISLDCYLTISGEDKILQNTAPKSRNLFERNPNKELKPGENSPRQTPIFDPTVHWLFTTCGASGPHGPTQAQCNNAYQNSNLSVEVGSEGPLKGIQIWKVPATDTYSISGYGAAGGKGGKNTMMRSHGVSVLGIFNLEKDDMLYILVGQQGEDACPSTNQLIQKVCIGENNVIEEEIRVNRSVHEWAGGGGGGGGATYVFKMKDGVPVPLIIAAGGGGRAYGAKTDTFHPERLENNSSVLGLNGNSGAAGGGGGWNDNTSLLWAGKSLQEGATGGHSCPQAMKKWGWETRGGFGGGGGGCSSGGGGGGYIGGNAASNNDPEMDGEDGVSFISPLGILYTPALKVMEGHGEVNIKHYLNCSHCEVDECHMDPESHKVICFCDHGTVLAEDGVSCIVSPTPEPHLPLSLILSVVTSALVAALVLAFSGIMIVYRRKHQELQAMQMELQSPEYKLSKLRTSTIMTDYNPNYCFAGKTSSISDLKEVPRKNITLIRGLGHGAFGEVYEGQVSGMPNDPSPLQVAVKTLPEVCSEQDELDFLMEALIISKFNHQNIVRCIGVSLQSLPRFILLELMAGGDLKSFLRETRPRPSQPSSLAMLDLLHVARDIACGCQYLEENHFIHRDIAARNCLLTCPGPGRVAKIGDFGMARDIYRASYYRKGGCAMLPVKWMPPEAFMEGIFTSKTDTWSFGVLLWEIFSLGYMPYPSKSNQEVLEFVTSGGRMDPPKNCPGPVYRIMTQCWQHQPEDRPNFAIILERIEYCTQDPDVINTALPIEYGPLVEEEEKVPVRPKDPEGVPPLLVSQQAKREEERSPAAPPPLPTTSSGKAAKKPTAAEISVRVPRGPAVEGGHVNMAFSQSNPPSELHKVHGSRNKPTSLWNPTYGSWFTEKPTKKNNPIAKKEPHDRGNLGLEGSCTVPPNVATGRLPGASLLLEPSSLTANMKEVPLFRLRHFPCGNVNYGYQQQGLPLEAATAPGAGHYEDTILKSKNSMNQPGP
Where a name gives a salt, the structure may show the parent alone.
measurement_kind: ALK % of inhibition at a concentration of 500 nM or 1 mM (%)

Prompt: I would be grateful if you could share the reported ALK % of inhibition at a concentration of 500 nM or 1 mM for N#Cc1cccc(C(=O)N2CCC(CC(=O)Nc3ccc4cc3CCc3cncc(c3)Nc3ncc(Cl)c(n3)N4)CC2)c1 [Example A191, bis(trifluoroacetate)] .
Completion: 25

Prompt: Data request, read-out ALK % of inhibition at a concentration of 500 nM or 1 mM, for O=C(CC1CCN(C(=O)Nc2ccccc2)CC1)Nc1ccc2cc1CCc1cncc(c1)Nc1ncc(Cl)c(n1)N2 [Example A77, bis(trifluoroacetate)]
Completion: 35

Prompt: Fill blank: measured ALK % of inhibition at a concentration of 500 nM or 1 mM of the compound Cc1ccc(C(=O)N2CCC(CC(=O)Nc3ccc4cc3CCc3cncc(c3)Nc3ncc(Cl)c(n3)N4)CC2)o1 [Example A162, bis(trifluoroacetate)] is ____.
Completion: 33

Prompt: Record request: ALK % of inhibition at a concentration of 500 nM or 1 mM value, item CC(=O)N1CCC(CC(=O)Nc2ccc3cc2CCc2cncc(c2)Nc2ncc(Cl)c(n2)N3)C1 (stereo not drawn) [Example A94, bis(trifluoroacetate)]
Completion: 26

Prompt: Given O=C(CC1CCN(C(=O)c2cccnc2)CC1)Nc1ccc2cc1CCc1cncc(c1)Nc1ncc(Cl)c(n1)N2 [Example A188, tris(trifluoroacetate)] , state its recorded ALK % of inhibition at a concentration of 500 nM or 1 mM.
Completion: 26

Prompt: Which ALK % of inhibition at a concentration of 500 nM or 1 mM is reported for this compound? CC(C)C(=O)N1CCC(CC(=O)Nc2ccc3cc2CCc2cccc(c2)Nc2ncc(Cl)c(n2)N3)CC1 [Example A89, trifluoroacetate]
Completion: 29
